# Species on record: Rattus norvegicus
# protocol-summary: DrugMatrix - Regimen: Daily Repeat
# Type: toxicity, organism-based, Sprague-Dawley
# Set-up: regimen Daily Repeat, gender Male, age 6-8 weeks
# measurement-setup: in vivo, po, 0 mg/kg, 72 h, tissue Blood, route oral GAVAGE, dose level Control, time 3 day, vehicle 100 % WATER
# maps each entry to its NUCLEATED RED BLOOD CELLS

Below, 2 compounds whose answers are already recorded.
>  <compound>
CCCC(C)C1(CC)C(=O)NC(=O)NC1=O (stereo not drawn)

>  <NUCLEATED RED BLOOD CELLS>
0.17 /100WBC

$$$$
>  <compound>
NC12CC3CC(CC(C3)C1)C2

>  <NUCLEATED RED BLOOD CELLS>
0 /100WBC

$$$$

NUCLEATED RED BLOOD CELLS lookup needed for `CN(C)CCC=C1c2ccccc2CCc2ccccc21` , thanks.
0 /100WBC

NUCLEATED RED BLOOD CELLS lookup needed for CN(C)C(=O)Oc1cccc([N+](C)(C)C)c1.[Br-] [NEOSTIGMINE BROMIDE] , thanks.
0.17 /100WBC

----------
# Species: Rattus norvegicus
# protocol-summary: DrugMatrix - Regimen: Daily Repeat
# Type: toxicity, organism-based, Sprague-Dawley
# Design: regimen Daily Repeat, gender Male, age 6-8 weeks
# measurement-setup: in vivo, iv, 0 mg/kg, 120 h, tissue Plasma, dose level Control, time 5 day, vehicle 100 % SALINE
value-kind: CHLORIDE (MEQ/L)
Answer format: numeric, MEQ/L implied, no suffix.

>  <compound>
O=C(O)P(=O)(O)O

>  <units-of-measure>
MEQ/L

>  <CHLORIDE>
102.67

$$$$
>  <compound>
COc1cccc2c1C(=O)c1c(O)c3c(c(O)c1C2=O)C[C@@](O)(C(C)=O)C[C@@H]3O[C@H]1C[C@H](N)[C@H](O)[C@H](C)O1

>  <units-of-measure>
MEQ/L

>  <CHLORIDE>
100.5

$$$$
>  <compound>
C[N+](C)(C)CCOC(=O)CCC(=O)OCC[N+](C)(C)C.[Cl-].[Cl-] [SUCCINYLCHOLINE CHLORIDE]

>  <units-of-measure>
MEQ/L

>  <CHLORIDE>
103

$$$$

# ---- query compound ----
CHLORIDE lookup needed for `O=c1[nH]c(=O)n([C@H]2C[C@H](O)[C@@H](CO)O2)cc1F` , thanks.
101.67

----------
# maps each entry to its LEUKOCYTE COUNT
# Species: Rattus norvegicus
# protocol-summary: DrugMatrix - Regimen: Daily Repeat
# Assay type: toxicity, organism-based, Sprague-Dawley
# Design: regimen Daily Repeat, gender Male, age 6-8 weeks
# measurement-setup: in vivo, iv, 0 mg/kg, 120 h, tissue Blood, dose level Control, time 5 day, vehicle 100 % SALINE

Below, 3 molecules whose answers are already recorded.
>  <molecule>
N=C(N)c1ccc(OCCCCCOc2ccc(C(=N)N)cc2)cc1

>  <LEUKOCYTE COUNT>
16.03 x10E3/uL

$$$$
>  <molecule>
C[N+](C)(C)CCOC(=O)CCC(=O)OCC[N+](C)(C)C.[Cl-].[Cl-] [SUCCINYLCHOLINE CHLORIDE]

>  <LEUKOCYTE COUNT>
16.03 x10E3/uL

$$$$
>  <molecule>
COc1cccc2c1C(=O)c1c(O)c3c(c(O)c1C2=O)C[C@@](O)(C(C)=O)C[C@@H]3O[C@H]1C[C@H](N)[C@H](O)[C@H](C)O1

>  <LEUKOCYTE COUNT>
12.67 x10E3/uL

$$$$

LEUKOCYTE COUNT lookup needed for `O=C(O)P(=O)(O)O` , thanks.
15.13 x10E3/uL

LEUKOCYTE COUNT lookup needed for `O=c1[nH]c(=O)n([C@H]2C[C@H](O)[C@@H](CO)O2)cc1F` , thanks.
13.62 x10E3/uL

----------
# maps each entry to its MONOCYTE
# Species: Rattus norvegicus
# protocol-summary: DrugMatrix - Regimen: Daily Repeat
# Format: toxicity, organism-based, Sprague-Dawley
# Parameters: regimen Daily Repeat, gender Male, age 6-8 weeks
# measurement-setup: in vivo, po, 0 mg/kg, 72 h, tissue Blood, route oral GAVAGE, dose level Control, time 3 day, […]
Answer format: numeric, % implied, no suffix.

Below, 2 molecules whose answers are already recorded.
>  <molecule>
CCCCC(=O)N(Cc1ccc(-c2ccccc2-c2nnn[nH]2)cc1)[C@H](C(=O)O)C(C)C

>  <MONOCYTE [%]>
0.67

$$$$
>  <molecule>
c1ccoc1

>  <MONOCYTE [%]>
1.7

$$$$

MONOCYTE lookup needed for CS(=O)(=O)Nc1ccc([N+](=O)[O-])cc1Oc1ccccc1 [NIMESULIDE] , thanks.
4.67

MONOCYTE lookup needed for `O=c1c(-c2ccc(O)cc2)coc2cc(O)cc(O)c12` , thanks.
0.17

MONOCYTE lookup needed for `CC(=O)Oc1ccccc1C(=O)O` , thanks.
0.67

MONOCYTE lookup needed for ClC(Cl)(Cl)Cl [CARBON TETRACHLORIDE] , thanks.
1.83

----------
# Species on record: Rattus norvegicus
# protocol-summary: DrugMatrix - Regimen: Daily Repeat
# Type: toxicity, organism-based, Sprague-Dawley
# Parameters: regimen Daily Repeat, gender Male, age 6-8 weeks
# measurement-setup: in vivo, po, 0 mg/kg, 120 h, tissue Plasma, route oral GAVAGE, dose level Control, time 5 day, vehicle .5 % CMC
# maps each entry to its POTASSIUM
Answer format: numeric, MEQ/L implied, no suffix.

Below, 5 compounds whose answers are already recorded.
>  <compound>
COc1ccc2c(c1OC)C(=O)O[C@@H]2[C@H]1c2c(cc3c(c2OC)OCO3)CCN1C [NOSCAPINE]

>  <POTASSIUM, MEQ/L>
7.2

$$$$
>  <compound>
C#C[C@]1(O)CC[C@H]2[C@@H]3CCC4=CC(=O)CC[C@]4(C)[C@H]3CC[C@@]21C [ETHISTERONE]

>  <POTASSIUM, MEQ/L>
7.2

$$$$
>  <compound>
CN1C(=O)CN=C(c2ccccc2)c2cc([N+](=O)[O-])ccc21 [NIMETAZEPAM]

>  <POTASSIUM, MEQ/L>
6.47

$$$$
>  <compound>
CN(C)CCN(Cc1cccs1)c1ccccn1

>  <POTASSIUM, MEQ/L>
6.4

$$$$
>  <compound>
CN1CCN(C2=Nc3cc(Cl)ccc3Nc3ccccc32)CC1 [CLOZAPINE]

>  <POTASSIUM, MEQ/L>
6.68

$$$$

POTASSIUM lookup needed for `CCOc1nc2cccc(C(=O)O)c2n1Cc1ccc(-c2ccccc2-c2nnn[nH]2)cc1` , thanks.
6.17

POTASSIUM lookup needed for CN(C)C(=O)C(CCN1CCC(O)(c2ccc(Cl)cc2)CC1)(c1ccccc1)c1ccccc1 [LOPERAMIDE] , thanks.
5.63

POTASSIUM lookup needed for C[C@@](Cc1ccc(O)c(O)c1)(NN)C(=O)O.O [CARBIDOPA] , thanks.
6.82

POTASSIUM lookup needed for CCC1=C(C)CN(C(=O)NCCc2ccc(S(=O)(=O)NC(=O)N[C@H]3CC[C@H](C)CC3)cc2)C1=O [GLIMEPIRIDE] , thanks.
5.63

----------
# Species on record: Rattus norvegicus
# protocol-summary: DrugMatrix - Regimen: Daily Repeat
# Assay type: toxicity, organism-based, Sprague-Dawley
# Parameters: regimen Daily Repeat, gender Male, age 6-8 weeks
# measurement-setup: in vivo, po, 0 mg/kg, 72 h, tissue Blood, route oral GAVAGE, dose level Control, time 3 day, vehicle .5 % CMC
# maps each entry to its HEMATOCRIT
The number alone won't do; follow it with the unit.

Below, 3 compounds whose answers are already recorded.
>  <compound>
CCn1cc(C(=O)O)c(=O)c2cc(F)c(N3CCNC(C)C3)c(F)c21 (configuration not stated) [LOMEFLOXACIN]

>  <HEMATOCRIT>
37.36%

$$$$
>  <compound>
CN(C)C(=O)C(CCN1CCC(O)(c2ccc(Cl)cc2)CC1)(c1ccccc1)c1ccccc1 [LOPERAMIDE]

>  <HEMATOCRIT>
35.45%

$$$$
>  <compound>
COc1ccc2c(c1OC)C(=O)O[C@@H]2[C@H]1c2c(cc3c(c2OC)OCO3)CCN1C [NOSCAPINE]

>  <HEMATOCRIT>
45.44%

$$$$

# ---- query compound ----
HEMATOCRIT lookup needed for COc1ccccc1[N+](=O)[O-] [2-NITROANISOLE] , thanks.
32.22%

----------
# Species: Rattus norvegicus
# protocol-summary: DrugMatrix - Regimen: Daily Repeat
# Format: toxicity, organism-based, Sprague-Dawley
# Parameters: regimen Daily Repeat, gender Male, age 6-8 weeks
# measurement-setup: in vivo, iv, 0 mg/kg, 120 h, tissue Blood, dose level Control, time 5 day, vehicle 100 % SALINE
value-kind: EOSINOPHIL
The number alone won't do; follow it with the unit.

Below, 4 molecules whose answers are already recorded.
>  <molecule>
COc1cccc2c1C(=O)c1c(O)c3c(c(O)c1C2=O)C[C@@](O)(C(C)=O)C[C@@H]3O[C@H]1C[C@H](N)[C@H](O)[C@H](C)O1 [DAUNORUBICIN]

>  <result>
0.17%

$$$$
>  <molecule>
O=C(O)P(=O)(O)O [FOSCARNET]

>  <result>
1%

$$$$
>  <molecule>
C[N+](C)(C)CCOC(=O)CCC(=O)OCC[N+](C)(C)C.[Cl-].[Cl-] [SUCCINYLCHOLINE CHLORIDE]

>  <result>
0.17%

$$$$
>  <molecule>
O=c1[nH]c(=O)n([C@H]2C[C@H](O)[C@@H](CO)O2)cc1F [FLOXURIDINE]

>  <result>
1.17%

$$$$

# ---- query molecule ----
EOSINOPHIL lookup needed for N=C(N)c1ccc(OCCCCCOc2ccc(C(=N)N)cc2)cc1 [PENTAMIDINE] , thanks.
0.17%
